# System: Plasmodium falciparum
# assay-remarks: Primary screen in NF54 nanoGlo assay, in single point, at 2uM, 72h
# Type: functional, Erythrocyte
# settings: timepoint 72 hour
Screen size: about 150,000 compounds; about 540 (0.36%) showed an effect of 50% or more. Shown is part of a subset that was picked to be rich in strong results.
Binarize Z score at -10; below is condition met, at or above is condition not met.

Field: example entries. Status: answers known.
# compound, measured-on, label-value
measured = [
    ("CCNc1cc(C)nc(NCCNC(=O)Nc2cc(F)cc(F)c2)n1", "Plasmodium falciparum", "condition met"),
    ("COc1ccc2nc(C)cc(NCc3cccc(NC(=O)c4ccco4)c3)c2c1", "Plasmodium falciparum", "condition met"),
    ("Cc1cnccc1N1CCCN(Cc2ccccc2OCCN2CCN(C)CC2)CC1", "Plasmodium falciparum", "condition met"),
    ("c1cc(Nc2ccnc(C3CC3)n2)cc(N2CCCCCC2)c1", "Plasmodium falciparum", "condition not met"),
    ("CC(C)CCC1CCCC1NCCCN1CCOCC1 (centres undefined)", "Plasmodium falciparum", "condition not met"),
]

Query block: Given the entry Cc1cc(=O)[nH]c(-n2nc(C)cc2NC(=O)C(=O)N2CCC[C@H](C)C2)n1 , would its reported Z score be below -10?
Result block: condition not met

Query block: Next up: CCNc1nc(C)cc(Nc2ccc(NC(=O)Nc3ccc(F)cc3F)cc2)n1
Result block: condition met

Query block: Thanks! And Cc1ccccc1CN1CCC(CNc2c3c(nc4ccccc24)CCC3)CC1 ?
Result block: condition met

Query block: Could you do the same for Cc1cc(C)c(C)c(S(=O)(=O)NC2COCC2Cc2ccncc2)c1C (centres undefined) , please?
Result block: condition not met

Query block: Param item: Nc1cc(N2CCC(c3nc4cc(F)ccc4[nH]3)CC2)nc(N2CCOCC2)n1
Result block: condition met

* * *

# Test system: Plasmodium falciparum
# assay-remarks: Primary screen in NF54 nanoGlo assay, in single point, at 2uM, 72h
# Assay type: functional, Erythrocyte
# settings: timepoint 72 hour
The whole screen tested about 150,000 compounds, of which about 540 (0.36%) showed an effect of 50% or more. What follows is part of a selection rich in strong results, with near analogues and random picks from the rest.
Listed compounds paired with reported % Inhibition
Write the number in % without appending the unit.

# compound-structure, measured-on, result-value
measured = [
    ("Cc1ccc2nc(CCCNC3CCN(c4cc(C)nc(N)n4)CC3)oc2c1", "Plasmodium falciparum", 40),
]

Query block: Request: % Inhibition, test system Plasmodium falciparum, entry Cc1ccc2nc(NC[C@H]3CCN(C4CC4)C3)cc(C)c2c1
Result block: 55

Query block: # iterate: CCc1cc(NC2CCN(CC(F)F)CC2)nc(-c2ccncc2)n1
Result block: 4

Query block: Please give the result for O=C(c1cc(-c2ccccc2)[nH]n1)N1CCC(c2nc3cc(C(F)(F)F)ccc3s2)CC1 too.
Result block: 3

Query block: Repeat for the following compound: C[C@@H](c1cccc(-c2cc(N3CCOCC3)nc(N)n2)c1)N1CCCC1
Result block: -1

* * *

# System: Plasmodium falciparum
# assay-remarks: Primary screen in NF54 nanoGlo assay, in single point, at 2uM, 72h
# Assay type: functional, Erythrocyte
# settings: timepoint 72 hour
In all, about 150,000 compounds went through this assay and about 540 (0.36%) showed an effect of 50% or more. Shown is part of a subset that was picked to be rich in strong results.
reported-property: % Inhibition (%)
Express your answer in %, writing the number without its unit.

# compound-structure, % Inhibition / %
measured = [
    ("CN(C)C1(CNc2nc(C(F)(F)F)nc3cc4c(cc23)OCO4)CCCCCC1", 54),
    ("CCN(Cc1cnn(-c2cccc(Cl)c2)c1)CC1CCN(C2CCN(C)CC2)CC1", 82),
    ("C[C@@H](CNC1CCN(C2CCN(C)CC2)CC1)c1cccc(Cl)c1", 97),
]

Query block: # input molecule: NC(=O)C1CCN(CCCNc2ncnc3ccccc23)CC1 ; wanted: its % Inhibition
Result block: 14

Query block: Param item: CN1CCC(N2CCC(NCc3cccc4nsnc34)CC2)CC1
Result block: 14

Query block: Now give it for CN(C)Cc1ccccc1NC(=O)c1cccc2c(=O)c3ccccc3[nH]c12 too.
Result block: -2

Query block: Thanks! And CCc1ccc2ncnc(NCCCN3CCN(CCO)CC3)c2c1 ?
Result block: 65

* * *

# Test system: Plasmodium falciparum
# assay-remarks: Primary screen in NF54 nanoGlo assay, in single point, at 2uM, 72h
# Format: functional, Erythrocyte
# settings: timepoint 72 hour
Among all 150,000 compounds or so, about 540 (0.36%) showed an effect of 50% or more. Only a selection was taken, and strong results are over-represented in it overall.
reported-property: % Inhibition (%)
Give just the number in %; leave the unit off.

# compound-structure, measured-on, reported-property, result-value
records = [
    ("Cc1sc2nc(-c3ccccn3)nc(NCCc3nccn3C)c2c1-c1ccccc1", "Plasmodium falciparum", "% Inhibition", 71),
    ("COc1ccc2nccc(N3CCC(O)CC3)c2c1", "Plasmodium falciparum", "% Inhibition", 5),
    ("CN1CCN(CC2CCN(c3ccnc4ccccc34)CC2)CC1", "Plasmodium falciparum", "% Inhibition", 98),
]

Shift focus to the following entry.
Query block: Would you mind telling me what % Inhibition value was observed for CN(C)CCn1ncc(C(=O)NC2CCN(CC3CCCC3)CC2)c1-c1ccccc1 ?
Result block: 0

* * *

# Test system: Plasmodium falciparum
# assay-remarks: Primary screen in NF54 nanoGlo assay, in single point, at 2uM, 72h
# Type: functional, Erythrocyte
# settings: timepoint 72 hour
In all, about 150,000 compounds went through this assay and about 540 (0.36%) showed an effect of 50% or more. The entries come from a sample that favours strong results as a whole.
Documented Z score across a set of molecules
Please state the value as a number alone, without comment.

Query block: Please give the measured Z score for this molecule: CC(CCO)CNc1nc(NCC(C)CCO)c2ccccc2n1 (stereo not drawn)
Result block: -0.17

Query block: Try COc1ccc(Nc2ncc(CN(C)CCn3ccnc3)s2)cc1 next.
Result block: -0.26

* * *

# Tested on: Plasmodium falciparum
# assay-remarks: Primary screen in NF54 nanoGlo assay, in single point, at 2uM, 72h
# Type: functional, Erythrocyte
# settings: timepoint 72 hour
In all, about 150,000 compounds went through this assay and about 540 (0.36%) showed an effect of 50% or more. For the sample, strong results were picked, then their nearest neighbours and some compounds at random.
reported-property: Z score
Answer with a number only.

A selection of reference data follows.
# compound, reported-property, result-value
measured = [
    ("OC1CN(c2ccnc3ccccc23)CCC1N1CCN(c2ccccn2)CC1 (stereo unspecified)", "Z score", 1.2),
    ("CN([C@@H](c1ccccc1)c1ccccc1Br)S(=O)(=O)c1c[nH]c2ncccc12", "Z score", -11.93),
    ("C[C@](O)(CNS(=O)(=O)c1c[nH]c2ncccc12)C(c1ccccc1)c1ccccc1", "Z score", -0.63),
    ("CN(C)CCn1ncc(C(=O)NC2CCN(CC3CCCC3)CC2)c1-c1ccccc1", "Z score", 0.06),
    ("CC(C)Nc1cc(-c2cc(OC(F)(F)F)ccc2O)ncn1", "Z score", -0.31),
    ("Cc1cccc2c(NCCCCN3CCN(CCO)CC3)ncnc12", "Z score", 1.79),
]

Query block: I'd like to know its Z score. The compound in question is CC(=O)N1CCC(CNC2CCC(C)(N3CCCC3)CC2)CC1 (stereo unspecified)
Result block: 1.74

Query block: Same read-out for c1ccc(CCC23CN(Cc4ccccn4)CC2CN(Cc2ccns2)C3)cc1 (stereo unspecified) ?
Result block: -17.09

Query block: Request: NC(=O)[C@H]1CCCN(CCCNc2cc(C(F)(F)F)nc(N3CCCC3)n2)C1
Result block: 0.88

* * *

# System: Plasmodium falciparum
# assay-remarks: Primary screen in NF54 nanoGlo assay, in single point, at 2uM, 72h; a lower Z score goes with more inhibition
# Type: functional, Erythrocyte
# settings: timepoint 72 hour
In all, about 150,000 compounds went through this assay and about 540 (0.36%) showed an effect of 50% or more. For the sample, strong results were picked, then their nearest neighbours and some compounds at random.
reported-property: Z score
API note: the answer field is a bare number with no unit suffix.

# compound-structure, result-value
data = [
    ("Cc1cc(N2CCC(N(C)Cc3ncc(-c4ccccc4C)o3)CC2)nc(C)n1", 0.66),
]

Query block: Give its Z score value. Item: O=C(NCc1ccc(N2CCNCC2)c(F)c1)c1ccc(-c2noc(C(F)(F)F)n2)cc1
Result block: -11.53

Query block: Same thing, different compound: Fc1ccc(-n2cc(CNCCC3CCN(c4ccncc4)CC3)cn2)cc1
Result block: -15.93

Query block: And COc1ccnc(CN2CC[C@H](Nc3ncccn3)C2)c1OC ?
Result block: 0.75
